Please respond with reported Ki for every item in the list.
Target Or System: ICE (Homo sapiens)
Sequence (P29466 120-297 limits assumed): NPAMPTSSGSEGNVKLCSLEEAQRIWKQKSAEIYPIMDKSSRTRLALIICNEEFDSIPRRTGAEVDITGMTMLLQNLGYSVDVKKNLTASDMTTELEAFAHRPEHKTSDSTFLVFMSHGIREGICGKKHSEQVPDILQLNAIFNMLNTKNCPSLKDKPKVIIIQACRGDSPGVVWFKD
Sequence (P29466 317-404 limits assumed): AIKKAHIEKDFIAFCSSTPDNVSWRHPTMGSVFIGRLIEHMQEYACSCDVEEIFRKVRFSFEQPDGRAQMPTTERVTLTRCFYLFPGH
Experimental Protocol: Enzyme assay with UV-visible substrate (visible ICE assay, Succinyl-Tyr-Val-Ala-Asp-pNitroanilide)
Type: biochemical
Measurement Context: Table 27
Numbers only, in nM.

Parameter requested: Ki. Apply to each item below.
1. Nc1c(Cl)cc(C(=O)N[C@H]2CN(C(=O)CO)c3ccccc3N(CC(=O)N[C@H](C=O)CC(=O)O)C2=O)cc1Cl [Compound 697]
2. CCOC(=O)C(=O)N1C[C@H](NC(=O)c2cc(C)c(O)c(C)c2)C(=O)N(CC(=O)N[C@H](C=O)CC(=O)O)c2ccccc21 [Compound 729]
3. CC(=O)OC(C)(C)C(=O)N1C[C@H](NC(=O)c2cc(C)c(O)c(C)c2)C(=O)N(CC(=O)N[C@H](C=O)CC(=O)O)c2ccccc21 [Compound 728]

-- reply
1: 1.8; 2: 28; 3: 300

Parameter requested: Ki. Apply to each item below.
1. CC(=O)N[C@@H](CCC(=O)O)C(=O)N[C@H]1CN(C(=O)CO)c2ccccc2N(CC(=O)N[C@H](C=O)CC(=O)O)C1=O [Compound 731]
2. COC(=O)N1C[C@H](NC(=O)c2ccc(O)c(Cl)c2)C(=O)N(CC(=O)N[C@H](C=O)CC(=O)O)c2ccccc21 [Compound 720]

-- reply
1: 150; 2: 2.7
